These measurements were taken from ChEMBL document CHEMBL3994654.

Molecular target: Glucose-dependent insulinotropic receptor (Mus musculus)
Sequence (Q7TQP3 whole entry): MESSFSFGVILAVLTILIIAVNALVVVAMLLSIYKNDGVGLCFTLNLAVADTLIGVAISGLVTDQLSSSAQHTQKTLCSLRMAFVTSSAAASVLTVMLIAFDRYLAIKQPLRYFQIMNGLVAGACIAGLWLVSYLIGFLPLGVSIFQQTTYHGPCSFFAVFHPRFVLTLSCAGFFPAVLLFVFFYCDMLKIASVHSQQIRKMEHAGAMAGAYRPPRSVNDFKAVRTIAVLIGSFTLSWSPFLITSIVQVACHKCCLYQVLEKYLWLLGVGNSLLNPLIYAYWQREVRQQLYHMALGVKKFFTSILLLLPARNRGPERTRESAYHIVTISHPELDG
Experiment: Agonist activity at mouse GPR119 expressed in CHO cells co-expressing Galpha15 assessed as increase in intracellular cAMP level after 60 mins by HTRF assay
QUANTITY_KIND: pEC50
Field pEC50 (float): negative decimal logarithm of the concentration in molar.

Sample answers from the record:
- SUBSTANCE_SMILES: "O=C(Cc1ccc(OCC[C@@H]2C[C@@H]2C2CCN(c3ncc(Cl)cn3)CC2)cc1F)N1CC(O)C1"
  QUANTITY_KIND: "pEC50"
  NUMERIC_VALUE: 8.17
- SUBSTANCE_SMILES: "NC(=O)Cc1ccc(OCC[C@@H]2C[C@@H]2C2CCN(c3ncc(Cl)cn3)CC2)cc1"
  QUANTITY_KIND: "pEC50"
  NUMERIC_VALUE: 7.80

Req: Entry under review: `O=C(Cc1ccc(OCC[C@@H]2C[C@@H]2C2CCN(c3ncc(Cl)cn3)CC2)cc1)N1CCC1` . Reported pEC50?
Resp: 9.30

Req: And for `COCc1cnc(N2CCC([C@H]3C[C@H]3CCOc3ccc(CC(=O)N4CCC4)c(F)c3)CC2)nc1` ?
Resp: 8.80

Req: And for `O=C(Cc1ccc(OCC[C@@H]2C[C@@H]2C2CCN(c3ncc(Cl)cn3)CC2)c(F)c1)N1CCC1` ?
Resp: 8.80

---

assay: Intrinsic clearance in rhesus monkey liver microsomes; format: ADME, Macaca mulatta, microsome; conditions: read-out: CLH
QUANTITY_KIND: CLint scaled (mL/min/kg)
Output spec: scalar in mL/min/kg, unitless text.

Req: Entry under review: `COCc1cnc(N2CCC([C@H]3C[C@H]3CCOc3cc(F)c(CC(=O)N4CCC4)c(F)c3)CC2)nc1` . Reported CLint scaled?
Resp: 44

---

experiment: Lipophilicity, log D of the compound at pH 7 by HPLC method; type: physicochemical; conditions: buffer
QUANTITY_KIND: logD
Answer with the value's number alone.

Req: Entry under review: `COCc1cnc(N2CCC([C@H]3C[C@H]3CCOc3cc(F)c(CC(=O)N4CCC4)c(F)c3)CC2)nc1` . Reported logD?
Resp: 4.1

---

test: Fraction unbound in human plasma; type: ADME, cell-free
QUANTITY_KIND: fraction unbound
Answer with the value's number alone.

Req: Entry under review: `COCc1cnc(N2CCC([C@H]3C[C@H]3CCOc3cc(F)c(CC(=O)N4CCC4)c(F)c3)CC2)nc1` . Reported fraction unbound?
Resp: 0.038

---

test: Ratio of drug level in C57BL/6 Tac mouse blood to plasma at 0.1 mg/kg, po via gavage measured at 90 mins post dose; type: ADME, organism-based; conditions: blood and plasma
QUANTITY_KIND: blood plasma ratio at 1.5 h

Req: Entry under review: `COCc1cnc(N2CCC([C@H]3C[C@H]3CCOc3cc(F)c(CC(=O)N4CCC4)c(F)c3)CC2)nc1` . Reported blood plasma ratio at 1.5 h?
Resp: 0.55
